Tested on: SK-MEL-28 melanoma
assay_comment: NCI tumour cell line growth inhibition, 48 h
property: TGI (µM)
One number for each entry, in µM.

// below: answered compounds
Enquiry: Read the entry O=c1oc2ccc(-c3ccc(F)cc3F)cc2c(=O)n1-c1ccc(Cl)c(C(F)(F)F)c1 and write its reported TGI.
Return: 5.77

Enquiry: Complete the entry with TGI for COc1cc(/C=C/c2cc(/C=C/c3ccc(O)c(OC)c3)n(C(=O)Nc3ccc(Cl)cc3)n2)ccc1O
Return: 4.07

Further cases:
Enquiry: Using known records, supply TGI for C=C(C)C(=O)O[C@@H]1C/C(C)=C\[C@H](OC(C)=O)C[C@](C)(O)/C=C2/OC(=O)C(COC(C)=O)=C21
Return: 0.762
